Molecular target: T1, hCDH17-his (full length extracellular domain of human CDH17, Q23-M787, his tag at the C-terminal) (human, UniProt Q12864 23-787)
T1 construct: Limits of the construct (UniProt Q12864, Q23-M787, C-terminal his tag); also called human CDH17-his protein; human CDH17 protein
T1 sequence: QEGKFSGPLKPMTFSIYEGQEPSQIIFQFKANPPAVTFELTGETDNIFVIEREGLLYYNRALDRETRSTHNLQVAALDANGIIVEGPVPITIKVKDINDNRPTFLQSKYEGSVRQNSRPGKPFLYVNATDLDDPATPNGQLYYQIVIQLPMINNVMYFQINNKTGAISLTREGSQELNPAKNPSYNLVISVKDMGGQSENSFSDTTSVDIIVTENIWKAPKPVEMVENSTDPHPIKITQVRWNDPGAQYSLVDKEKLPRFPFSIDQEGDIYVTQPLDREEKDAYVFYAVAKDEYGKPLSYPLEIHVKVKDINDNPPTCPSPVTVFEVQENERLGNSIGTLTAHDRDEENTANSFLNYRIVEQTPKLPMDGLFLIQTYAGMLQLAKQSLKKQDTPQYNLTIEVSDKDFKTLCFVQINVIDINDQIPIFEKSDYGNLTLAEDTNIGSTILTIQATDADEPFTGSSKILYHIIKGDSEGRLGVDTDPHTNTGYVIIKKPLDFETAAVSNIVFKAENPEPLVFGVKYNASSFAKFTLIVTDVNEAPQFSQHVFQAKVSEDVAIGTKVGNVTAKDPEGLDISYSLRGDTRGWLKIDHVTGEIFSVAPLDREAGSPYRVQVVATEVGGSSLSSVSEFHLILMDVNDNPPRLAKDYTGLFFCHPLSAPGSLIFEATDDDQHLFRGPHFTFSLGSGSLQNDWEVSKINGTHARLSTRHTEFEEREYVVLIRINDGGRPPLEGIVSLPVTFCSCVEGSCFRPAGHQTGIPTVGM
Assay: SPR (Biacore 8K), two doses, antibody captured on Protein A chip, hCDH17-his at 25 nM and 100 nM
measurement_kind: binding result

- 29H8D3-z12p1 (antibody, V domains shown, PTM-removed variant of 29H8D3-z12) VH: QVQLVQSGAEVKKPGASVKVSCKASGYTFTDHTIHWMRQRPGQGLEWIGYIYPREGYTKYNEKFKDRATLTADTSTSTAYMELRSLRSDDTAVYYCARFYYGYWYFDVWGQGTTVTVSS VL: DIVMTQSPLSLPVTPGEPASISCRSSKSLLRSNGNTYLYWFLQKPGQSPQVLIYRMSNLASGVPDRFSGSGSGTDFTLKISRVEAEDVGVYYCMQHLEYPFTFGQGTKLEIK: binds
